- System: barnyardgrass
- PROTOCOL: Test C postemergence
- Format: in vivo, Echinochloa crusgalli
- ASSAY SETUP: Postemergence, 1000 g ai/ha; 0 to 100 scale, 0 no effect, 100 complete control
PROPERTY LABEL: Plant response rating, Barnyardgrass
Lab note: record the figure alone, no unit after it.

Below, each entry is followed by its recorded Plant response rating, Barnyardgrass result.
In [3]: df
Out[3]:
                                   compound                        property_label  test_result
0  C[C@H]1CN(C(=O)c2cccc(N3CCOCC3)c2)c2cccc(Cl)c2O1 [Compound 166]  Plant response rating, Barnyardgrass            0
1  C[C@H]1CN(C(=O)c2cccc(-n3cccc3)c2)c2cccc(Cl)c2O1 [Compound 222]  Plant response rating, Barnyardgrass           20
2  Cc1cnc(-c2cccc(C(=O)N3C[C@H](C)Oc4c(C)cccc43)c2)cn1 [Compound 162]  Plant response rating, Barnyardgrass           10
3  Cc1ccc(-c2cccc(C(=O)N3C[C@H](C)Oc4c(C)cccc43)c2)nn1 [Compound 160]  Plant response rating, Barnyardgrass           10
4  Cc1ccc(-c2cccc(C(=O)N3C[C@H](C)Oc4c(Cl)cccc43)c2)o1 [Compound 204]  Plant response rating, Barnyardgrass            0

# Plant response rating, Barnyardgrass (compound: Cc1ccc(-c2cccc(C(=O)N3C[C@H](C)Oc4c(C)cccc43)c2)cn1 [Compound 159] ) is 10

---

- Test system: ryegrass, Italian
- PROTOCOL: Test A postemergence
- Format: in vivo, Lolium multiflorum
- ASSAY SETUP: 125 g ai/ha, postemergence, 10 days; 0 to 100 scale, 0 no effect, 100 complete control
// values below are reported Ryegrass, Italian plant response rating
Lab note: record the figure alone, no unit after it.

                              smiles_record  test_result
0  C[C@H]1CN(C(=O)c2cc(Br)cc(-n3cncn3)c2)c2cccc(Cl)c2O1           50
1  CC(C)c1ncn(-c2ccc(C#N)c(C(=O)N3C[C@H](C)Oc4c(Cl)cccc43)c2)n1           40
2  C[C@H]1CN(C(=O)c2cccc(-n3cnc(C(C)(C)C)n3)c2)c2cccc(Cl)c2O1           50

// moving on: another record for Ryegrass, Italian plant response rating
# Ryegrass, Italian plant response rating (compound: C#CCOc1ccc(-n2cnc(C(C)C)n2)cc1C(=O)N1C[C@H](C)Oc2c(Cl)cccc21 ) is 20

---

- Test system: sedge, umbrella
- PROTOCOL: Test B flooded paddy test
- Assay type: in vivo, Cyperus difformis
- ASSAY SETUP: 250 g ai/ha, Flood, 13 days, 0 to 100 scale (0 no effect, 100 complete control)
PROPERTY LABEL: Plant response rating, Sedge, Umbrella
Lab note: record the figure alone, no unit after it.

                                   compound  measured_target  test_result
0  COc1cc(C(=O)N2C[C@H](C)Oc3c(Cl)cccc32)cc(-n2cncn2)c1  sedge, umbrella           75

# Plant response rating, Sedge, Umbrella (compound: Cc1cccc2c1OC(C)CN2C(=O)c1cccc(-n2cncn2)c1 (centres unmarked) ) is 35

# Plant response rating, Sedge, Umbrella (compound: CC1CN(C(=O)c2ccnc(-n3cncn3)c2)c2cccc(Cl)c2O1 (centres unmarked) ) is 0

# Plant response rating, Sedge, Umbrella (compound: Cc1ncn(-c2cccc(C(=O)N3C[C@H](C)Oc4c(C)cccc43)c2)n1 ) is 80

# Plant response rating, Sedge, Umbrella (compound: CC(C)Cc1ncn(-c2cccc(C(=O)N3C[C@H](C)Oc4c(Cl)cccc43)c2)n1 ) is 0

# Plant response rating, Sedge, Umbrella (compound: CCc1ncn(-c2ccc(C)c(C(=O)N3C[C@H](C)Oc4c(C)cccc43)c2)n1 ) is 90

---

- System: corn
- PROTOCOL: Test A postemergence
- Type: in vivo, Zea mays
- ASSAY SETUP: 125 g ai/ha, postemergence, 10 days, visual injury, 0 to 100 scale (0 no effect, 100 complete control)
PROPERTY LABEL: Plant response rating, Corn
Lab note: record the figure alone, no unit after it.

In [3]: df
Out[3]:
                                   compound  test_result
0  CC1CN(C(=O)c2cccc(-n3cncn3)c2)c2cccc(C3CC3)c2O1 (stereo not shown)           10
1  Cc1ccc(-n2cnc(Br)n2)cc1C(=O)N1C[C@H](C)Oc2c(Cl)cccc21           10
2  Cc1ccc(-n2cnc(C3CC3)n2)cc1C(=O)N1C[C@H](C)Oc2c(Cl)cccc21           60
3  CCC1CN(C(=O)c2cncc(-n3cncn3)c2)c2cccc(Cl)c2O1 (racemic)            0
4  Cc1ccc(C(=O)N2CC(C)Oc3c(Cl)cccc32)cc1-n1cncn1 (stereo not shown)           20
5  CCc1ncn(-c2ccc(C)c(C(=O)N3C[C@H](C)Oc4c(Cl)cccc43)c2)n1           60
6  CC1CN(C(=O)c2cccc(-n3cncn3)c2)c2c(F)cccc2O1 (stereo not shown)            0
7  CC1CN(C(=O)c2cccc(-n3cncn3)c2)c2cc(F)cc(F)c2O1 (stereo not shown)           10
8  Cc1cccc2c1O[C@@H](C)CN2C(=O)c1ccc(F)c(-n2cncn2)c1           40

// moving on: another record for Plant response rating, Corn
# Plant response rating, Corn (compound: Cc1cccc2c1O[C@@H](C)CN2C(=O)c1cccc(-n2cnc(C3CC3)n2)c1 ) is 30

---

- Tested on: ragweed
- PROTOCOL: Test A preemergence
- Type: in vivo, Ambrosia artemisiifolia
- ASSAY SETUP: 500 g ai/ha, visual injury after 10 days, 0 to 100 scale, 0 is no effect, 100 is complete control
// values below are reported Plant response rating, Ragweed
Lab note: record the figure alone, no unit after it.

In [3]: df
Out[3]:
                                   compound  test_result
0  CC(C)c1ncn(-c2ccc(OC(F)(F)F)c(C(=O)N3C[C@H](C)Oc4c(Cl)cccc43)c2)n1 [Compound 111]           90

# Plant response rating, Ragweed (compound: Cc1cccc2c1O[C@@H](C)CN2C(=O)c1cccc(-n2cnn(C(C)C)c2=O)c1 [Compound 118] ) is 30

# Plant response rating, Ragweed (compound: Cc1ccc(-n2cnc(C(C)(C)O)n2)cc1C(=O)N1C[C@H](C)Oc2c(Cl)cccc21 [Compound 149] ) is 90

---

- System: ragweed
- PROTOCOL: Test C postemergence
- Assay type: in vivo, Ambrosia artemisiifolia
- ASSAY SETUP: Postemergence, 1000 g ai/ha, 10 days, visual 0 to 100 scale (0 no effect, 100 complete control)
PROPERTY LABEL: Plant response rating, Ragweed
Lab note: record the figure alone, no unit after it.

Below, each entry is followed by its recorded Plant response rating, Ragweed result.
>>> print(df.to_string())
                              smiles_record  test_result
0  C[C@H]1CN(C(=O)c2cccc(-n3cccc3)c2)c2cccc(Cl)c2O1            0
1  CCOC(=O)c1cncn1-c1cccc(C(=O)N2C[C@H](C)Oc3c(C)cccc32)c1           40
2  Cc1cccc2c1O[C@@H](C)CN2C(=O)c1cccc(-n2cncc2Br)c1            0

// moving on: another record for Plant response rating, Ragweed
# Plant response rating, Ragweed (molecule: Cc1cc(-c2cccc(C(=O)N3C[C@H](C)Oc4c(C)cccc43)c2)cnn1 ) is 0

---

- System: ryegrass, Italian
- PROTOCOL: Test C postemergence
- Type: in vivo, Lolium multiflorum
- ASSAY SETUP: Postemergence, 1000 g ai/ha; 0 to 100 scale, 0 no effect, 100 complete control
PROPERTY LABEL: Plant response rating, Ryegrass, Italian

>>> df
                                   compound                            property_label  test_result
0  CC1CN(C(=O)c2ccnc(-c3ccccn3)c2)c2cccc(Cl)c2O1 (stereo not shown)  Plant response rating, Ryegrass, Italian            0

Value sought: Plant response rating, Ryegrass, Italian, system ryegrass, Italian, item Cc1ncc(-c2cccc(C(=O)N3C[C@H](C)Oc4c(C)cccc43)c2)cn1 . Result: 20

Value sought: Plant response rating, Ryegrass, Italian, system ryegrass, Italian, item Cc1ccc(-c2cccc(C(=O)N3C[C@H](C)Oc4c(C)cccc43)c2)nn1 . Result: 0

Value sought: Plant response rating, Ryegrass, Italian, system ryegrass, Italian, item Cc1cc(-c2cccc(C(=O)N3C[C@H](C)Oc4c(C)cccc43)c2)ccn1 . Result: 0
